This listing pairs compounds with measured log10 of EC50.
molecular target: human GR (Homo sapiens, UniProt P04150); construct: naturally expresses the human GR; endogenous in cells; assay: Trans-activation modulation of glucocorticoid receptor (GRAMMER), MMTV-LUC reporter in A549 cells; format: cell-based; conditions: A549 cells; IP = inflection point; read-out: Transactivation A549 Cells Grammer IP
Sequence (P04150 whole entry): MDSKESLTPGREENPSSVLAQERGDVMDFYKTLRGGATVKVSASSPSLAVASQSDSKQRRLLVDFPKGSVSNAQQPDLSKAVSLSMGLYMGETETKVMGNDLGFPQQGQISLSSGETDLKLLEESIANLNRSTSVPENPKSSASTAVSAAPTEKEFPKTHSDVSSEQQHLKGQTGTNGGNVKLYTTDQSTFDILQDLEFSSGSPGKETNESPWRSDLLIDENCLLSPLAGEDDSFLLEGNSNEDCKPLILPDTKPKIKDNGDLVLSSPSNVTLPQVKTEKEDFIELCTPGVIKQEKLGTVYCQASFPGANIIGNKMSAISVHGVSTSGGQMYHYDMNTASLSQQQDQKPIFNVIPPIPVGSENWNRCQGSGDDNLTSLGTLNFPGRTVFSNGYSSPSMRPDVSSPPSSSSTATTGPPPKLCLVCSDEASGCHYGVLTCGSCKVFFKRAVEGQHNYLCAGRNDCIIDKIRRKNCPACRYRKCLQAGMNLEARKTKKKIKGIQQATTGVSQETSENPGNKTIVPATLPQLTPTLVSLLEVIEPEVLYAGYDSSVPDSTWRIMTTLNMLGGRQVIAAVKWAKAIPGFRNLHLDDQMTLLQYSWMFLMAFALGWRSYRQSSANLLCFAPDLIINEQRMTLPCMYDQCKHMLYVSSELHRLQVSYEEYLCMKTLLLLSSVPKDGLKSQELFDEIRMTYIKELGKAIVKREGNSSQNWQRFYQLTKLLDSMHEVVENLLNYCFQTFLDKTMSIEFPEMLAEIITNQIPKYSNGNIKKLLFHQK
Give log10 of EC50, with EC50 taken in µM.

compound: COc1ccnc(CC[C@]2(O)CCC3=Cc4c(cnn4-c4ccc(F)cc4)C[C@@]32C2CC2)c1C(F)C(N)=O (stereo partly shown)
experimental target: human GR (Homo sapiens, UniProt P04150)
log10 of EC50: -2.15
--
compound: OC(C[C@]1(O)CCC2=Cc3c(cnn3-c3ccc(F)cc3)C[C@@]21C1CC1)c1ccccn1 (stereo partly shown)
experimental target: human GR (Homo sapiens, UniProt P04150)
log10 of EC50: -1.18
--
compound: NC(=O)CNC(=O)c1cc(F)cnc1CC[C@]1(O)CCC2=Cc3c(cnn3-c3ccc(F)cc3)C[C@@]21C1CC1
experimental target: human GR (Homo sapiens, UniProt P04150)
log10 of EC50: -0.81
--
compound: CC[C@]12Cc3cnn(-c4ccccc4)c3C=C1CC[C@@]2(O)CCc1cccc(F)c1C#N
experimental target: human GR (Homo sapiens, UniProt P04150)
log10 of EC50: -1.21

Given O=S(=O)(c1ccccc1CC[C@]1(O)CCC2=Cc3c(cnn3-c3ccc(F)cc3)C[C@@]21C1CC1)C1CC1 , state its recorded log10 of EC50.
-1.38

Given NC(=O)c1ccccc1CC[C@]1(O)CCC2=Cc3c(cnn3-c3ccccc3)C[C@@]21C1CC1 , state its recorded log10 of EC50.
-1.13

Given CC[C@]12Cc3cnn(-c4ccccc4)c3C=C1CC[C@@]2(O)CC(O)c1ccccn1 (single isomer, unassigned) [Example 67a] , state its recorded log10 of EC50.
-0.55

Where do these numbers come from? They come from patent US20120214847A1.
